Cited source: paper PMC9352680

# assayed system: T1, PUF4 RNA-binding domain (Saccharomyces cerevisiae, UniProt P25339 537-888)
# T1 sequence: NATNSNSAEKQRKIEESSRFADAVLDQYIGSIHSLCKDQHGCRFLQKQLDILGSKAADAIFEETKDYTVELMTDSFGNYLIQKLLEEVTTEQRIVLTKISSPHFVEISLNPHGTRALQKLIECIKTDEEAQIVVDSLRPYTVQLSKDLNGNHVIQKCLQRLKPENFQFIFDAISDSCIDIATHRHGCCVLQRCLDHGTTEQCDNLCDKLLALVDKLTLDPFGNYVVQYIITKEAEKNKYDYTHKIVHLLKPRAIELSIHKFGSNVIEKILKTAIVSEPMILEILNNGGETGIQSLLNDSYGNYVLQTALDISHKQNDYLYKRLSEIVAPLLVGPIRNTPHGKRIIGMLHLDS
# assay text: Mg; RNA-MaP; 20 mM Na-HEPES pH 7.4, 30 mM KOAc, 0.75 mM MgCl2, 0.1% Tween-20, 5% glycerol, 0.1 mg/mL BSA, 2 mM DTT; 25 C; 0.0125-409.6 nM protein
# condition summary: tags: N-His6-TEV cleaved; C-SNAP kept, Cy3B-labelled; label: tethered on chip by stalled RNA polymerase
In plain terms, low Kd, meaning strictly below 50 nM, gives Yes, and everything else gives No.

Hi there! Is Kd for ACAAACCUACACUAUAUCACAAAC (ssRNA) [Id_ii_S3_P3E.4_K3.3_C3.2_H3.3_A3.1_F3.1_T3.2_[A10C]] below 50 nM, do you know?
No

Hi there! Is Kd for ACAAACGCUAUAUUAUUAAUACAAAC (ssRNA) [Id_ii_S3_P5E.3_K5.2_C5.2_[C-2G]_[T-1C]_H5.2_A5.1_F5.1_T5.2_[T11A]_[A12T]] below 50 nM, do you know?
No

Hi there! Is Kd for Id_ii_S4_P5E.2_K5.1_C5.2_[C-2G]_[T-1C]_H5.1_A5.1_F5.1_T5.2_[T11A]_[A12T] (ssRNA) RNA: UUUGACAACUGAUCGUUCUUUCUGCUGUAUUAUUAAUUUCUUUCUCGAUCAGUUGUCUUU below 50 nM, do you know?
Yes

Hi there! Is Kd for UCUCUUACUAUAUAUUAUAUCUCUU (ssRNA) [Id_ii_S1_P4E.3_K4.2_C4.2_[C-2A]_[T-1C]_H4.2_A4.1_F4.1_T4.2_[G10T]_[T11A]] below 50 nM, do you know?
Yes

Hi there! Is Kd for UCUCUUCUCUCUGUAUAUAUAUCUCUU (ssRNA) [Ie_S1_P3E.2_K3.1_C3.2_[+-1CTC]_H3.1_A3.1_F3.1_T3.2] below 50 nM, do you know?
Yes

Hi there! Is Kd for Ic_S2_P4E.1_K4.1_C4.1_H4.1_A4.1_[T5C]_[A6C]_[T7C]_F4.1_[T8G]_[A9C]_T4.1 (ssRNA) RNA: UUUGAUUAAUAUGAUAUCGUUCUUUCUUGUACCCGCUUCUUUCUCGAUAUCAUAUUAAUCUUU below 50 nM, do you know?
No

Hi there! Is Kd for Ib_S2_P5E.1_K5.1_C5.1_H5.1_[A4C]_A5.1_[T6A]_F5.1_T5.1 (ssRNA) RNA: UUUGAUUAAUAUGAUAUCGUUCUUUCUUGUCUAAUUAUUCUUUCUCGAUAUCAUAUUAAUCUUU below 50 nM, do you know?
Yes

Hi there! Is Kd for Ic_S2_P4E.1_K4.1_C4.1_H4.1_A4.1_[T5A]_[A6C]_[T7A]_F4.1_[T8A]_[A9T]_T4.1 (ssRNA) RNA: UUUGAUUAAUAUGAUAUCGUUCUUUCUUGUAACAAUUUCUUUCUCGAUAUCAUAUUAAUCUUU below 50 nM, do you know?
Yes

Hi there! Is Kd for Ie_S2_P4E.1_K4.1_C4.1_H4.1_A4.1_F4.1_[+8CCCT]_T4.1 (ssRNA) RNA: UUUGAUUAAUAUGAUAUCGUUCUUUCUUGUAUAUUCCCUAUUCUUUCUCGAUAUCAUAUUAAUCUUU below 50 nM, do you know?
Yes

Hi there! Is Kd for Ic_S4_P5E.1_K5.1_C5.1_H5.1_A5.1_[T5C]_[T6C]_[A7T]_F5.1_[A10T]_T5.1 (ssRNA) RNA: UUUGACAACUGAUCGUUCUUUCUUGUACCUUUUUUCUUUCUCGAUCAGUUGUCUUU below 50 nM, do you know?
Yes

Hi there! Is Kd for Id_ii_S4_P3E.4_K3.3_C3.2_[C-2G]_H3.3_A3.1_F3.1_T3.2_[T9C]_[A10C] (ssRNA) RNA: UUUGACAACUGAUCGUUCUUUCUGUACACUAUACCUUCUUUCUCGAUCAGUUGUCUUU below 50 nM, do you know?
Yes

Hi there! Is Kd for UCUCUUUGUAUUCCUCAUUAUCUCUU (ssRNA) [Ie_S1_P5E.1_K5.1_C5.1_H5.1_A5.1_[+6CCTC]_F5.1_T5.1] below 50 nM, do you know?
No
